Tested on: BDF1 mice, P388 leukemia ip, median survival T/C
assay: NCI In Vivo Anticancer Drug Screen. Data for tumor model P388 Leukemia (intraperitoneal) in B6D2F1 (BDF1) mice
experimental.parameters: endpoint: median survival time; dose: 200.0 mg/kg/injection; schedule: Q01DX009 (ip); vehicle: saline with Tween-80; higher = longer survival
Toxic doses and inconclusive results are not listed.
Assignment: determine reported T/C for the given compounds.

INPUT: Data request, read-out T/C, for CCC(C)C1(C)OC1C(=O)OC (stereo not given)
OUTPUT: 107 % of control

INPUT: Consider next the compound `Cc1nc2ccccc2n1C[c-]1[c-][c-][c-][c-]1.[Fe].[c-]1[c-][c-][cH-][c-]1` in the same way.
OUTPUT: 105 % of control

INPUT: Thanks! And Clc1ccc(COC(Cn2ccnc2)c2ccc(Cl)cc2Cl)c(Cl)c1 (stereo not given) ?
OUTPUT: 108 % of control

INPUT: Would you kindly repeat that for `CC(C)C(=O)c1ccc([N+](=O)[O-])o1` ?
OUTPUT: 109 % of control

INPUT: Ok, now `C[C@@H]1CN(C(=O)CCOS(C)(=O)=O)[C@@H](C)CN1C(=O)CCOS(C)(=O)=O`
OUTPUT: 104 % of control

INPUT: Moving on to `Nc1ccccc1CCc1ccccc1N`
OUTPUT: 100 % of control

INPUT: Also `CCN(C(=S)Nc1cccc(OC)c1)c1ccccc1` , if possible.
OUTPUT: 101 % of control

INPUT: What do you have for `Cc1cc([N+](=O)[O-])c2ccccc2c1N(CC(=O)O)S(=O)(=O)c1ccccc1` ?
OUTPUT: 112 % of control

INPUT: Can you check CCOC(=O)C1C2OC(=O)C(C(=O)C2N=Nc2ccc(-c3ccc(N=NC4C(=O)C5C(=O)OC4C(C(=O)OCC)C5C4CC=CCC4)cc3)cc2)C1C1CC=CCC1 (stereo not given) next?
OUTPUT: 100 % of control

INPUT: Now the same for COc1cccc(/C=N/NC(=S)NC2CC3CCC2C3)c1O (stereo not given)
OUTPUT: 103 % of control

----------
Test system: BDF1 mice, P388 leukemia ip, median survival T/C
assay: NCI In Vivo Anticancer Drug Screen. Data for tumor model P388 Leukemia (intraperitoneal) in B6D2F1 (BDF1) mice
experimental.parameters: endpoint: median survival time; dose: 100.0 mg/kg/injection; schedule: Q01DX009 (ip); vehicle: saline
Inconclusive results and toxic doses are left out. How the source made its calls: active means survival T/C of 150% or more; inactive means T/C below 125% in these data.
Outcomes you can answer with include only these: Y = active, N = inactive

INPUT: Give the logged outcome of this assay for the following compound: `CCc1ccc(C(=O)NN)cc1`
OUTPUT: N

INPUT: Would you kindly repeat that for COc1ccc(CC2Cc3cc(OC)c(OC)cc3C=N2)cc1OC (stereo unspecified) ?
OUTPUT: N

INPUT: Next up: `CCCCCCC(=O)NC1=C(N2CC2)C(=O)C(NC(=O)CCCCCC)=C(N2CC2)C1=O`
OUTPUT: Y

INPUT: Then O=C(Nc1ccc([N+](=O)[O-])cc1)Nc1ccc([N+](=O)[O-])cc1 (tested in a mixture with another compound) ?
OUTPUT: N

INPUT: Check `O=C(O)c1ccc(N2C(=O)c3ccccc3C2=O)cc1[N+](=O)[O-]` too.
OUTPUT: N

INPUT: Also need `O=C(O)CCCOc1ccc(Cl)cc1Cl` , thanks.
OUTPUT: N

INPUT: Now try `CN(C)C(=O)c1cccc(N)c1` .
OUTPUT: N

INPUT: Continue with `CC1(C)N=C(N)N=C(N)N1c1ccc(OCC(=O)Nc2ccc(S(=O)(=O)F)cc2)c(Cl)c1`
OUTPUT: Y

INPUT: Similarly, O=C(O)C(O)C(O)C(=O)O (stereo unspecified) ?
OUTPUT: N

INPUT: How about `C=Cc1ccc(Oc2ccccc2)cc1` ?
OUTPUT: N

INPUT: Again, but for CCN(CC)CC(C)Nc1ccc(C)c2sc3ccccc3c(=O)c12 (stereo unspecified)
OUTPUT: Y

----------
Hi there, I'd appreciate the recorded T/C for every entry that follows.
Test system: BDF1 mice, P388 leukemia ip, median survival T/C
assay: NCI In Vivo Anticancer Drug Screen. Data for tumor model P388 Leukemia (intraperitoneal) in B6D2F1 (BDF1) mice
experimental.parameters: endpoint: median survival time; dose: 200.0 mg/kg/injection; schedule: Q01DX009 (ip); vehicle: saline with Tween-80; higher = longer survival
Inconclusive results and toxic doses are left out.

INPUT: Record request: T/C value, item `CC(C)=CCC/C(C)=C/CN1C(=O)c2ccccc2C1=O`
OUTPUT: 92 % of control

INPUT: What do you have for Cc1ccc(C(C#N)Nc2ccccc2)cc1 (configuration not stated) ?
OUTPUT: 115 % of control

INPUT: Param item: `C[C@]12[C@@H]3CC(=O)C[C@@]1(CC[C@@H]1[C@@H]2CC[C@]2(C)OC(=O)CC[C@@H]12)SS3`
OUTPUT: 91 % of control

INPUT: Follow-up entry: `O=C(O)Cn1c(C(F)(F)F)nc2nc(Cl)c(Cl)nc21`
OUTPUT: 90 % of control

INPUT: Try NC(=O)NC(c1ccccc1)C(NC(N)=O)c1ccccc1 (configuration not stated) next.
OUTPUT: 91 % of control

INPUT: Can you check `C=CCN(CC=C)CCSC(=S)NCCOC` next?
OUTPUT: 95 % of control

INPUT: Now this one: `O=C(C(=O)c1ccc(Br)cc1)c1ccc(Br)cc1`
OUTPUT: 98 % of control

INPUT: Lookup `O=C1CC(c2ccccc2)=NO1`
OUTPUT: 107 % of control

INPUT: Ok, now `CCCC(=O)Oc1ccc(/C=N/NC(N)=S)nc1`
OUTPUT: 115 % of control

INPUT: What do you get for `O=C(O)CCN1C(=O)c2ccccc2C1=O` ?
OUTPUT: 100 % of control

INPUT: Moving on to `CCOC(=O)c1c[nH]c2nc(SC)nc(NC(C)=O)c2c1=O`
OUTPUT: 89 % of control

INPUT: What do we get for CC1CCCCC1(O)CSc1ccccc1 (configuration not stated) ?
OUTPUT: 101 % of control

INPUT: Also `O=C(NS(=O)(=O)c1ccc(Cl)cc1)c1ccccc1` , if possible.
OUTPUT: 90 % of control

INPUT: Next record, please: `CC1(C)CC(=O)C2=C(C1)OC1=C(C(=O)CC(C)(C)C1)C2c1cccc([N+](=O)[O-])c1`
OUTPUT: 106 % of control

INPUT: Please answer likewise for `COc1ccc(CCNC(=O)Cc2ccccc2)cc1OC`
OUTPUT: 90 % of control

INPUT: And the next one, `CCOC(=O)CCc1nn(C)c2ccc(CC)cc2c1=O` ?
OUTPUT: 90 % of control

INPUT: Same again, this time with `COc1ccc(OC)c2c1C(=O)c1ccccc1C2=O`
OUTPUT: 106 % of control

INPUT: Next compound up: `COc1ccc(/C=C2\NC(=O)NC2=O)cc1O`
OUTPUT: 105 % of control

INPUT: Now the same for CC1(C)OC2OC(COC(=O)c3ccccc3)C(=O)C2O1 (configuration not stated)
OUTPUT: 92 % of control

INPUT: One more compound: `O=C(/C=C/c1ccccc1)c1ccccc1`
OUTPUT: 108 % of control

INPUT: Next entry: `COc1cc2c(c(OC)c1OC)CCc1cnoc1-2`
OUTPUT: 97 % of control

INPUT: Record: `O=C(CSc1cc(-c2ccc(Cl)cc2)s[s+]1)c1ccccc1`
OUTPUT: 113 % of control

INPUT: And the next one, `Nc1ccc(N=Nc2ccccc2)c(N)c1` ?
OUTPUT: 115 % of control

INPUT: Subsequent entry: `O=C1CSC(=S)N1`
OUTPUT: 104 % of control

INPUT: Thanks! And `COc1cc(/C=N\Nc2ccccc2[N+](=O)[O-])cc(OC)c1OC` ?
OUTPUT: 104 % of control

INPUT: Then what about the compound O=C1CC(SC(=S)C2CCCC2=O)C(=O)N1 (configuration not stated) ?
OUTPUT: 89 % of control

INPUT: Another compound to look at: `CN(C)c1nc(N(C)C)nc(N(C)C)n1`
OUTPUT: 107 % of control

----------
System: BDF1 mice, P388 leukemia ip, median survival T/C
assay: NCI In Vivo Anticancer Drug Screen. Data for tumor model P388 Leukemia (intraperitoneal) in B6D2F1 (BDF1) mice
experimental.parameters: endpoint: median survival time; dose: 50.0 mg/kg/injection; schedule: Q04DX003 (ip); vehicle: saline
Inconclusive results and toxic doses are left out. Rule for the calls: active = survival T/C of 150% or more; inactive = T/C below 125% in these data.
Choose one outcome from this list and give only that: TRUE (active), FALSE (inactive)

INPUT: Test call, this compound: `Cc1nn(-c2ccccc2)c(N)c1C#N`
OUTPUT: FALSE

INPUT: `CN(C)CC(=O)N/N=C\c1ccc([N+](=O)[O-])s1` , same question.
OUTPUT: FALSE

INPUT: Next compound: O=[N+]([O-])c1ccc(C[Se]c2ncnc3c2ncn3C2OC(CO)C(O)C2O)cc1 (stereo not drawn)
OUTPUT: FALSE

INPUT: Quick one: `Cc1cc([N+](=O)[O-])cc(C)c1OC(=O)c1ccc(N=C(N)N)cc1`
OUTPUT: FALSE

INPUT: For `OCCNCCN1CCN(CCCN2c3ccccc3Sc3ccc(C(F)(F)F)cc32)CC1` then?
OUTPUT: FALSE

INPUT: Same question, `NC(=O)NNC(N)=O` this time
OUTPUT: FALSE

INPUT: # iterate: `CN(C)C`
OUTPUT: FALSE

INPUT: Also, `COc1cccc(CC(N)=O)c1OC` please.
OUTPUT: FALSE

INPUT: Same question, `C[n+]1csc(=S)[nH]1` this time
OUTPUT: FALSE

INPUT: Now the compound `[Cl][Co][Cl].[NH-]CCN1CC1`
OUTPUT: FALSE

INPUT: Okay, and `NNC(=O)c1ccc(Cl)cc1Nc1ccc(F)cc1` ?
OUTPUT: FALSE

INPUT: And then `CCOC(=O)C(Br)C(=O)OCC` , what is it?
OUTPUT: FALSE

INPUT: Follow-up entry: `O=C(Cn1ccc(=O)[nH]c1=O)c1ccc([N+](=O)[O-])o1`
OUTPUT: FALSE

INPUT: Another compound to check: `CCCCCCCCCCCCN(C)C`
OUTPUT: FALSE

INPUT: Try this compound too: `C[n+]1ccc(Nc2ccc(NC(=O)c3ccc(Nc4cc[n+](C)c5ccc(N)cc45)cc3N)cc2)cc1`
OUTPUT: TRUE

INPUT: Try this compound too: `CN1CCC=C(C(=O)N(c2ccccc2)c2ccccc2)C1`
OUTPUT: FALSE

INPUT: Next compound up: `CC(C)CN1CCOCC1`
OUTPUT: FALSE

INPUT: What do you get for `NNC12CC3CC(CC(C3)C1)C2` ?
OUTPUT: FALSE

INPUT: And the next one, `COCCOP(=O)(N1CC1)N1CC1` ?
OUTPUT: TRUE

INPUT: Now this one: CCOC(=O)C(C(=O)OCC)C1c2ccccc2C(=O)N(CCN(C)C)c2ccccc21 (stereo not drawn)
OUTPUT: FALSE

INPUT: Quick one: `COc1cc(/C=N/NC(=O)C[n+]2ccccc2)cc(OC)c1`
OUTPUT: FALSE

INPUT: Now give it for `COc1ccc2nc(Cl)c(C)c(C)c2c1` too.
OUTPUT: FALSE

INPUT: Also need COc1ccc(C[C@H](N)C(=O)NC2C(CO)OC(n3cnc4c(N(C)C)ncnc43)C2O)cc1 (stereo partly drawn) , thanks.
OUTPUT: FALSE
